β-D-mannosidase (C. fimi) listing for selected compounds.
System: β-D-mannosidase Cellulomonas fimi
Assay: Glycosidase assay, β-D-mannosidase (Cellulomonas fimi)
Type: biochemical
Conditions: Table 16; % inhibition; concentration not given

{"COMPOUND_STRUCTURE": "OC[C@H]1NC[C@H](O)[C@@H](O)[C@@H]1O", "TARGET_SYSTEM": "β-D-mannosidase Cellulomonas fimi", "β-D-mannosidase (C. fimi)": "−19%"}
{"COMPOUND_STRUCTURE": "O=C(O)CCN1C[C@H](O)[C@@H](O)[C@H](O)[C@H]1CO", "TARGET_SYSTEM": "β-D-mannosidase Cellulomonas fimi", "β-D-mannosidase (C. fimi)": "−5%"}
{"COMPOUND_STRUCTURE": "O=C(O)CN1C[C@H](O)[C@@H](O)[C@H](O)[C@H]1CO", "TARGET_SYSTEM": "β-D-mannosidase Cellulomonas fimi", "β-D-mannosidase (C. fimi)": "−10%"}
{"COMPOUND_STRUCTURE": "O=C(O)CN1C[C@@H](O)[C@H](O)[C@H]1CO", "TARGET_SYSTEM": "β-D-mannosidase Cellulomonas fimi", "β-D-mannosidase (C. fimi)": "−5%"}
{"COMPOUND_STRUCTURE": "OC[C@H]1NC[C@@H](O)[C@@H]1O", "TARGET_SYSTEM": "β-D-mannosidase Cellulomonas fimi", "β-D-mannosidase (C. fimi)": "95%"}

---

α-D-glucosidase (Rice) listing for selected molecules.
Target: α-D-glucosidase (rice) (Oryza sativa subsp. japonica, UniProt Q653V7)
Construct: purchased Sigma-Aldrich
Sequence (Q653V7 34-885): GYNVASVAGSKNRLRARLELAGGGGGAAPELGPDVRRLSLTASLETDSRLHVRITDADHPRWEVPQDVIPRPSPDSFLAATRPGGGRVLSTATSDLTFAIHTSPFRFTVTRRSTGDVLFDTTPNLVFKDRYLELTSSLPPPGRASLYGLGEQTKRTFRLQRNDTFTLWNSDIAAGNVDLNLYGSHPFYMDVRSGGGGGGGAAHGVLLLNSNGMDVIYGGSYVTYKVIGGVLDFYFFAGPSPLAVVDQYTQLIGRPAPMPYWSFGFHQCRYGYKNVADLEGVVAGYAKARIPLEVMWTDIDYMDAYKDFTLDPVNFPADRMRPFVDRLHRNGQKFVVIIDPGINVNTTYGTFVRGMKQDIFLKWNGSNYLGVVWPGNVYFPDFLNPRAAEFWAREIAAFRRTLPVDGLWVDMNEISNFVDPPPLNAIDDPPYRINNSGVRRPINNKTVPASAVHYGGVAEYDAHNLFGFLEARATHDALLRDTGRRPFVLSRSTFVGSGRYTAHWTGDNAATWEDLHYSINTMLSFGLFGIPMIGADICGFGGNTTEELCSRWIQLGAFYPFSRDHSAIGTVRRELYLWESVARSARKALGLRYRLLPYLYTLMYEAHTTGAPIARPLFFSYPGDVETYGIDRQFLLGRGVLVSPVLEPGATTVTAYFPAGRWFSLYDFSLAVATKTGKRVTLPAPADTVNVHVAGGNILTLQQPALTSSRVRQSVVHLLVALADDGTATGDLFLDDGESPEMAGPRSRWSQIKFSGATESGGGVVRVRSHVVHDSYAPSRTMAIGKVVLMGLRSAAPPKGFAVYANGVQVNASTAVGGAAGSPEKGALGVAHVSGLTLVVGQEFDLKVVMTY
Assay: Glycosidase assay, α-D-glucosidase (rice)
Assay type: biochemical
Settings: Table 16; % inhibition; concentration not given

{"MOLECULE": "OC[C@H]1NC[C@@H](O)[C@@H]1O [DAB, 1,4-dideoxy-1,4-imino-D-arabinitol]", "α-D-glucosidase (Rice), %": 100}
{"MOLECULE": "O=C(O)CN1C[C@@H](O)[C@H](O)[C@H]1CO [DAB-N-ethanoic, DAB-N-ethanoic acid]", "α-D-glucosidase (Rice), %": 42}
{"MOLECULE": "OC[C@H]1NC[C@H](O)[C@@H](O)[C@@H]1O [DNJ, 1 deoxynojirmycin]", "α-D-glucosidase (Rice), %": 100}
{"MOLECULE": "O=C(O)CCN1C[C@H](O)[C@@H](O)[C@H](O)[C@H]1CO [DNJ-N-propanoic, DNJ-N-propanoic acid]", "α-D-glucosidase (Rice), %": 100}
{"MOLECULE": "O=C(O)CN1C[C@H](O)[C@@H](O)[C@H](O)[C@H]1CO [DNJ-N-ethanoic, DNJ-ethanoic acid]", "α-D-glucosidase (Rice), %": 100}

---

Tested on: β-D-glucosidase (yeast)
Experiment: Glycosidase assay, β-D-glucosidase (yeast)
Assay type: biochemical
Details: Table 16; % inhibition; concentration not given
Label rule, in plain words: β-D-glucosidase (yeast) of 10% and up is Met, under 10% is Not met.

{"COMPOUND_STRUCTURE": "O=C(O)CCN1C[C@H](O)[C@@H](O)[C@H](O)[C@H]1CO", "TARGET_SYSTEM": "β-D-glucosidase (yeast)", "CAT": "Met"}
{"COMPOUND_STRUCTURE": "O=C(O)CN1C[C@@H](O)[C@H](O)[C@H]1CO", "TARGET_SYSTEM": "β-D-glucosidase (yeast)", "CAT": "Not met"}
{"COMPOUND_STRUCTURE": "OC[C@H]1NC[C@@H](O)[C@@H]1O", "TARGET_SYSTEM": "β-D-glucosidase (yeast)", "CAT": "Met"}
{"COMPOUND_STRUCTURE": "OC[C@H]1NC[C@H](O)[C@@H](O)[C@@H]1O", "TARGET_SYSTEM": "β-D-glucosidase (yeast)", "CAT": "Met"}
{"COMPOUND_STRUCTURE": "O=C(O)CN1C[C@H](O)[C@@H](O)[C@H](O)[C@H]1CO", "TARGET_SYSTEM": "β-D-glucosidase (yeast)", "CAT": "Met"}

---

System: glycogen phosphorylase
Assay: Glycogen phosphorylase assay
Assay type: biochemical
Settings: words, no concentration
PROPERTY_LABEL: glycogen phosphorylase inhibition

{"MOLECULE": "OC[C@H]1O[C@@](CO)(O[C@H]2O[C@H](CO)[C@@H](O)[C@H](O)[C@H]2O)[C@@H](O)[C@@H]1O [sucrose]", "EXPERIMENTAL_RESULT": "do not inhibit"}
{"MOLECULE": "OC[C@H]1NC[C@H](O)[C@@H](O)[C@@H]1O [DNJ, 1 deoxynojirmycin]", "EXPERIMENTAL_RESULT": "do not inhibit"}
{"MOLECULE": "OC[C@H]1NCC[C@@H](O)[C@@H]1O [fagomine, Fagomine]", "EXPERIMENTAL_RESULT": "do not inhibit"}

---

Biological target: α-D-galactosidase (green coffee bean) (Coffea arabica)
Construct: purchased Sigma-Aldrich
Sequence (Q42656 16-378): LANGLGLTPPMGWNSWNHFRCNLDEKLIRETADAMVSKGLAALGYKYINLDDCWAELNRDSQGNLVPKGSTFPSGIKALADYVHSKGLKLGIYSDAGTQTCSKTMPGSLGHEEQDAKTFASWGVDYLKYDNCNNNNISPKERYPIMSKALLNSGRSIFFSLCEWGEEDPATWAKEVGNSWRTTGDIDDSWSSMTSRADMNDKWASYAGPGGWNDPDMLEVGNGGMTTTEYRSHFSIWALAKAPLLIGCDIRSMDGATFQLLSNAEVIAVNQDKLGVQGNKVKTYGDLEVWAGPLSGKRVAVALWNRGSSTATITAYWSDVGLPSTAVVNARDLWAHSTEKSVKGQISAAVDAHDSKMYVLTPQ
Assay: Glycosidase assay, α-D-galactosidase (green coffee bean)
Type: biochemical
Conditions: Table 16; % inhibition; concentration not given

{"COMPOUND": "O=C(O)CCN1C[C@H](O)[C@@H](O)[C@H](O)[C@H]1CO [DNJ-N-propanoic, DNJ-N-propanoic acid]", "α-D-galactosidase (Green coffee beans) / %": 15}
{"COMPOUND": "O=C(O)CN1C[C@@H](O)[C@H](O)[C@H]1CO [DAB-N-ethanoic, DAB-N-ethanoic acid]", "α-D-galactosidase (Green coffee beans) / %": "−5"}
{"COMPOUND": "O=C(O)CN1C[C@H](O)[C@@H](O)[C@H](O)[C@H]1CO [DNJ-N-ethanoic, DNJ-ethanoic acid]", "α-D-galactosidase (Green coffee beans) / %": "−8"}
{"COMPOUND": "OC[C@H]1NC[C@@H](O)[C@@H]1O [DAB, 1,4-dideoxy-1,4-imino-D-arabinitol]", "α-D-galactosidase (Green coffee beans) / %": 7}
{"COMPOUND": "OC[C@H]1NC[C@H](O)[C@@H](O)[C@@H]1O [DNJ, 1 deoxynojirmycin]", "α-D-galactosidase (Green coffee beans) / %": "−3"}

---

Target: amyloglucosidase (A. niger) (Aspergillus niger, UniProt P69328)
Construct: purchased Sigma-Aldrich
Sequence (P69328 25-640): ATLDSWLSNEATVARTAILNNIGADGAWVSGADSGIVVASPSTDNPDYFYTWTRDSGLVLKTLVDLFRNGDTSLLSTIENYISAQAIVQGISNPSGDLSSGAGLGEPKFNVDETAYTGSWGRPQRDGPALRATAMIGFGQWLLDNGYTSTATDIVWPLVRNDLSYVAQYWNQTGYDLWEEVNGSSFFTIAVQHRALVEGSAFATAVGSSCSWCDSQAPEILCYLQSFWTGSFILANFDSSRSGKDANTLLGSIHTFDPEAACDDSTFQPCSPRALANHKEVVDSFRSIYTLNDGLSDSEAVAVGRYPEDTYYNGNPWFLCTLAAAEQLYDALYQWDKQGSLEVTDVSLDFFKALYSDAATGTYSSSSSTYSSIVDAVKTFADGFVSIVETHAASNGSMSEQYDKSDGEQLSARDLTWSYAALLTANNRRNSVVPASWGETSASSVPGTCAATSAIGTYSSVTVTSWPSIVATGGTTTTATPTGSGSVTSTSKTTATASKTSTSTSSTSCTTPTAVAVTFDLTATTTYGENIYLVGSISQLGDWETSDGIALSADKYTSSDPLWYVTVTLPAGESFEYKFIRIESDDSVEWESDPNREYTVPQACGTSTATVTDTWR
Assay: Glycosidase assay, amyloglucosidase (A. niger)
Assay type: biochemical
Conditions: Table 16; % inhibition; concentration not given
Label rule, in plain words: Amyloglucosidase of 50% and up is 1 (yes), under 50% is 0 (no).

{"COMPOUND_STRUCTURE": "O=C(O)CN1C[C@@H](O)[C@H](O)[C@H]1CO", "TARGET_SYSTEM": "amyloglucosidase (A. niger) (Aspergillus niger, UniProt P69328)", "CAT": "0 (no)"}
{"COMPOUND_STRUCTURE": "O=C(O)CCN1C[C@H](O)[C@@H](O)[C@H](O)[C@H]1CO", "TARGET_SYSTEM": "amyloglucosidase (A. niger) (Aspergillus niger, UniProt P69328)", "CAT": "1 (yes)"}
{"COMPOUND_STRUCTURE": "OC[C@H]1NC[C@@H](O)[C@@H]1O", "TARGET_SYSTEM": "amyloglucosidase (A. niger) (Aspergillus niger, UniProt P69328)", "CAT": "0 (no)"}
{"COMPOUND_STRUCTURE": "OC[C@H]1NC[C@H](O)[C@@H](O)[C@@H]1O", "TARGET_SYSTEM": "amyloglucosidase (A. niger) (Aspergillus niger, UniProt P69328)", "CAT": "0 (no)"}
{"COMPOUND_STRUCTURE": "O=C(O)CN1C[C@H](O)[C@@H](O)[C@H](O)[C@H]1CO", "TARGET_SYSTEM": "amyloglucosidase (A. niger) (Aspergillus niger, UniProt P69328)", "CAT": "0 (no)"}

---

Biological target: α-L-fucosidase (bovine) (Bos taurus)
Construct: purchased Sigma-Aldrich
Sequence (Q2KIM0 23-468): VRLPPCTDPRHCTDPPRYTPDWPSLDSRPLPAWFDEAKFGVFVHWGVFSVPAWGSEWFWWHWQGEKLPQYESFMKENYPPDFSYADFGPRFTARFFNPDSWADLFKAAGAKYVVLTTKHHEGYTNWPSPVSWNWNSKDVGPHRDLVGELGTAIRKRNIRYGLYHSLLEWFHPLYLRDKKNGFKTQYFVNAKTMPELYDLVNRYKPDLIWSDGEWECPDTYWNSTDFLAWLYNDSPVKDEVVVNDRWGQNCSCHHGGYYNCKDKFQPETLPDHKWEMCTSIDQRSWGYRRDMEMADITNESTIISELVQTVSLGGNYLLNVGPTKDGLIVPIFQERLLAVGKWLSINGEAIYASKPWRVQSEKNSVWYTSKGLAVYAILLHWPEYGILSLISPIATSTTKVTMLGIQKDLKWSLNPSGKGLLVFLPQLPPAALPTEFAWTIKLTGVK
Test: Glycosidase assay, α-L-fucosidase (bovine)
Assay type: biochemical
Conditions: Table 16; % inhibition; concentration not given
α-L-fucosidase (Bovine) listing for selected compounds.

{"COMPOUND_STRUCTURE": "O=C(O)CCN1C[C@H](O)[C@@H](O)[C@H](O)[C@H]1CO", "α-L-fucosidase (Bovine), %": 11}
{"COMPOUND_STRUCTURE": "O=C(O)CN1C[C@H](O)[C@@H](O)[C@H](O)[C@H]1CO", "α-L-fucosidase (Bovine), %": 5}
{"COMPOUND_STRUCTURE": "O=C(O)CN1C[C@@H](O)[C@H](O)[C@H]1CO", "α-L-fucosidase (Bovine), %": 3}
{"COMPOUND_STRUCTURE": "OC[C@H]1NC[C@H](O)[C@@H](O)[C@@H]1O", "α-L-fucosidase (Bovine), %": 6}
{"COMPOUND_STRUCTURE": "OC[C@H]1NC[C@@H](O)[C@@H]1O", "α-L-fucosidase (Bovine), %": 5}
